- assay_summary: Franz cell permeation and mass balance
- Assay type: in vitro ADME, pig
- experimental_context: Plunger
reported_property: Sumatriptan recovered

{"smiles": "CNS(=O)(=O)Cc1ccc2[nH]cc(CCN(C)C)c2c1", "reported_property": "Sumatriptan recovered", "test_value": "346 µg"}

---

- assay_summary: Franz cell permeation and mass balance
- Type: in vitro ADME, pig
- experimental_context: Surface

{"smiles": "CNS(=O)(=O)Cc1ccc2[nH]cc(CCN(C)C)c2c1", "Sumatriptan recovered (µg)": 3180}

---

- assay_summary: Franz cell permeation and mass balance
- Assay type: in vitro ADME, pig
- experimental_context: Donor
reported_property: Sumatriptan recovered

{"compound": "CNS(=O)(=O)Cc1ccc2[nH]cc(CCN(C)C)c2c1 [sumatriptan]", "reported_property": "Sumatriptan recovered", "test_value": "95.9 µg"}

---

- assay_summary: Franz cell permeation and mass balance
- Type: in vitro ADME, pig
- experimental_context: Receptor

{"smiles": "CNS(=O)(=O)Cc1ccc2[nH]cc(CCN(C)C)c2c1", "Sumatriptan recovered [µg]": 18.2}

---

- assay_summary: Solubility of sumatriptan in receiver fluid
- Format: physicochemical
- experimental_context: receiver fluid (10% ethanol in PBS), aqueous with cosolvent or surfactant or cyclodextrin; 10% ethanol in PBS (receiver fluid); read-out: maximum solubility
reported_property: solubility (µg/mL)

{"smiles": "CNS(=O)(=O)Cc1ccc2[nH]cc(CCN(C)C)c2c1", "result_units": "µg/mL", "test_value": 1930}

---

- assay_summary: Franz cell permeation and mass balance
- Assay type: in vitro ADME, pig
- experimental_context: Total amount in receiver fluid; approximately 5 mg applied

{"smiles": "CNS(=O)(=O)Cc1ccc2[nH]cc(CCN(C)C)c2c1", "Sumatriptan recovered, µg": 1920}

---

- assay_summary: Franz cell permeation and mass balance
- Format: in vitro ADME, pig
- experimental_context: pig, 5 mg; mass balance, based on weight of formulation applied; read-out: total amount recovered compared to the theoretical recovery, Mean

{"smiles": "CNS(=O)(=O)Cc1ccc2[nH]cc(CCN(C)C)c2c1", "recovery, %": 94.4}
